Recorded values, source ChEMBL document CHEMBL6109159.

- assayedSystem: von Hippel-Lindau disease tumor suppressor/Protein arginine N-methyltransferase 5 (Homo sapiens, UniProt O14744+P40337)
- Sequence (O14744 whole entry, looked up): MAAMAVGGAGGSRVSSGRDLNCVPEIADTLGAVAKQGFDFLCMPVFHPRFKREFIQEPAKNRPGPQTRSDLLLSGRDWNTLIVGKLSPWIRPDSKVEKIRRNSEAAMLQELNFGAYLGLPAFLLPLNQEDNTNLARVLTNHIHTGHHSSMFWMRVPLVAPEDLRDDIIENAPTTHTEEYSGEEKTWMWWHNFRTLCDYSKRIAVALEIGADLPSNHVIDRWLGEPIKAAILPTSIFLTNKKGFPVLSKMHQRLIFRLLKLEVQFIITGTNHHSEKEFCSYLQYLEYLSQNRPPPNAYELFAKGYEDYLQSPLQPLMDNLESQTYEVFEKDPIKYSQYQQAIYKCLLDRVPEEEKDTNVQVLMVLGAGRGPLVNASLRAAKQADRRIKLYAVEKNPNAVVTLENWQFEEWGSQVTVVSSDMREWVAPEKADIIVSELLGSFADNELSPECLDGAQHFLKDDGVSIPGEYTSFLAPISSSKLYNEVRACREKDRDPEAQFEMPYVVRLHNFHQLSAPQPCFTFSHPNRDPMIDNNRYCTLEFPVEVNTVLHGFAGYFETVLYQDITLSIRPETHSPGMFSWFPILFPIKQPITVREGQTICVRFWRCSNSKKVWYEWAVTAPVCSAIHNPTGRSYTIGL
- Sequence (P40337 whole entry, looked up): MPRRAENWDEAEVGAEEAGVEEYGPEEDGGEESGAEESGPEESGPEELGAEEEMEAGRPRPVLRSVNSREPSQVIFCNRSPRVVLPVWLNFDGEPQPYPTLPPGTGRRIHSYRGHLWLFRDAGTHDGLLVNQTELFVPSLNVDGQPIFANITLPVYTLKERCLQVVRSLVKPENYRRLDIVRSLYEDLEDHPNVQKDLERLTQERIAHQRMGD
- assayName: PROTAC activity at PRMT5/VHL in human MDA-MB-468 cells assessed as relative protein level at 5 uM measured after 24 hrs by Western blot analysis
- Type: cell-based
Calls of active or inactive are those of the source. The rule behind the calls is not given here.
Outcomes: t for active, f for inactive

testsmiles=Cc1ncsc1-c1ccc(CNC(=O)[C@@H]2C[C@@H](O)CN2C(=O)[C@@H](NC(=O)C2(F)CC2)C(C)(C)C)c(OCC(=O)NCCCCC(=O)N2CCC(Nc3cc(C(=O)NC[C@H](O)CN4CCc5ccccc5C4)ncn3)CC2)c1 cat=t
testsmiles=Cc1ncsc1-c1ccc([C@H](C)NC(=O)[C@@H]2C[C@@H](O)CN2C(=O)[C@@H](NC(=O)COCCOCCOCCOCCOCC(=O)N2CCC(Nc3cc(C(=O)NC[C@H](O)CN4CCc5ccccc5C4)ncn3)CC2)C(C)(C)C)cc1 cat=t
testsmiles=Cc1ncsc1-c1ccc([C@H](CC(=O)NCCCCCCC(=O)N2CCC(Nc3cc(C(=O)NC[C@H](O)CN4CCc5ccccc5C4)ncn3)CC2)NC(=O)[C@@H]2C[C@@H](O)CN2C(=O)[C@@H](NC(=O)C2(F)CC2)C(C)(C)C)cc1 cat=t
testsmiles=Cc1ncsc1-c1ccc(CNC(=O)[C@@H]2C[C@@H](O)CN2C(=O)[C@@H](NC(=O)C2(F)CC2)C(C)(C)C)c(OCC(=O)NCCOCCOCCOCCOCCOCCC(=O)N2CCC(Nc3cc(C(=O)NC[C@H](O)CN4CCc5ccccc5C4)ncn3)CC2)c1 cat=f

###

- assayedSystem: von Hippel-Lindau disease tumor suppressor/Protein arginine N-methyltransferase 5 (Homo sapiens, UniProt O14744+P40337)
- assayName: PROTAC activity at […]/VHL in human MDA-MB-468 cells assessed as relative protein level at 0.5 uM measured after 24 hrs by Western blot analysis
- Type: cell-based
Calls of active or inactive are those of the source. No cut-off for these calls is given here.
measuredProperty: Activity

testsmiles=Cc1ncsc1-c1ccc([C@H](CC(=O)NCCOCCOCCOCCC(=O)N2CCC(Nc3cc(C(=O)NC[C@H](O)CN4CCc5ccccc5C4)ncn3)CC2)NC(=O)[C@@H]2C[C@@H](O)CN2C(=O)[C@@H](NC(=O)C2(F)CC2)C(C)(C)C)cc1 measuredvalue=Active
testsmiles=Cc1ncsc1-c1ccc([C@H](C)NC(=O)[C@@H]2C[C@@H](O)CN2C(=O)[C@@H](NC(=O)CCOCCOCCOCCOCCOCCC(=O)N2CCC(Nc3cc(C(=O)NC[C@H](O)CN4CCc5ccccc5C4)ncn3)CC2)C(C)(C)C)cc1 measuredvalue=Active

###

- assayedSystem: von Hippel-Lindau disease tumor suppressor/Methylosome protein WDR77 (Homo sapiens, UniProt Q9BQA1+P40337)
- Sequence (P40337 whole entry, looked up): as above
- Sequence (Q9BQA1 whole entry, looked up): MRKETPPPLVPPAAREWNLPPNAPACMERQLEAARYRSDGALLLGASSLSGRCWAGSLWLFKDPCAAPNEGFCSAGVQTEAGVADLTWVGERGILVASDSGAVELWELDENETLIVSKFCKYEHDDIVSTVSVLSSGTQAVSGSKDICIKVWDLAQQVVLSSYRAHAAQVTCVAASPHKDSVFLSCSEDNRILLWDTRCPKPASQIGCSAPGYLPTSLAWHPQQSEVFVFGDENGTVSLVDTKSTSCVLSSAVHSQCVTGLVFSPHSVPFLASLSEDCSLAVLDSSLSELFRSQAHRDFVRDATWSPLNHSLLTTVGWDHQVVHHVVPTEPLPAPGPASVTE
- assayName: PROTAC activity at MEP50/VHL in human MDA-MB-468 cells assessed as relative protein level at 0.5 uM measured after 24 hrs by Western blot analysis
- Assay type: cell-based
The source made the active and inactive calls. The rule behind the calls is not given here.
Outcomes: true (1) (active), false (0) (inactive)

testsmiles=Cc1ncsc1-c1ccc([C@H](CC(=O)N2CCC(Nc3cc(C(=O)NC[C@H](O)CN4CCc5ccccc5C4)ncn3)CC2)NC(=O)[C@@H]2C[C@@H](O)CN2C(=O)[C@@H](NC(=O)C2(F)CC2)C(C)(C)C)cc1 cat="true (1)"
testsmiles=Cc1ncsc1-c1ccc(CNC(=O)[C@@H]2C[C@@H](O)CN2C(=O)[C@@H](NC(=O)C2(F)CC2)C(C)(C)C)c(OCC(=O)NCCCC(=O)N2CCC(Nc3cc(C(=O)NC[C@H](O)CN4CCc5ccccc5C4)ncn3)CC2)c1 cat="true (1)"
testsmiles=Cc1ncsc1-c1ccc(CNC(=O)[C@@H]2C[C@@H](O)CN2C(=O)[C@@H](NC(=O)C2(F)CC2)C(C)(C)C)c(OCC(=O)NCCOCCOCCC(=O)N2CCC(Nc3cc(C(=O)NC[C@H](O)CN4CCc5ccccc5C4)ncn3)CC2)c1 cat="false (0)"
testsmiles=Cc1ncsc1-c1ccc(CNC(=O)[C@@H]2C[C@@H](O)CN2C(=O)[C@@H](NC(=O)C2(F)CC2)C(C)(C)C)c(OCC(=O)NCCOCCOCCOCCOCCC(=O)N2CCC(Nc3cc(C(=O)NC[C@H](O)CN4CCc5ccccc5C4)ncn3)CC2)c1 cat="false (0)"
testsmiles=Cc1ncsc1-c1ccc(CNC(=O)[C@@H]2C[C@@H](O)CN2C(=O)[C@@H](NC(=O)C2(F)CC2)C(C)(C)C)c(OCC(=O)NCCCCC(=O)N2CCC(Nc3cc(C(=O)NC[C@H](O)CN4CCc5ccccc5C4)ncn3)CC2)c1 cat="true (1)"
testsmiles=Cc1ncsc1-c1ccc([C@H](CC(=O)NCCC(=O)N2CCC(Nc3cc(C(=O)NC[C@H](O)CN4CCc5ccccc5C4)ncn3)CC2)NC(=O)[C@@H]2C[C@@H](O)CN2C(=O)[C@@H](NC(=O)C2(F)CC2)C(C)(C)C)cc1 cat="true (1)"
testsmiles=Cc1ncsc1-c1ccc([C@H](C)NC(=O)[C@@H]2C[C@@H](O)CN2C(=O)[C@@H](NC(=O)CCOCCOCCOCCOCCOCCC(=O)N2CCC(Nc3cc(C(=O)NC[C@H](O)CN4CCc5ccccc5C4)ncn3)CC2)C(C)(C)C)cc1 cat="true (1)"
testsmiles=Cc1ncsc1-c1ccc(CNC(=O)[C@@H]2C[C@@H](O)CN2C(=O)[C@@H](NC(=O)C2(F)CC2)C(C)(C)C)c(OCC(=O)N2CCC(Nc3cc(C(=O)NC[C@H](O)CN4CCc5ccccc5C4)ncn3)CC2)c1 cat="true (1)"
testsmiles=Cc1ncsc1-c1ccc([C@H](CC(=O)NCCOCCOCCOCCOCCOCCC(=O)N2CCC(Nc3cc(C(=O)NC[C@H](O)CN4CCc5ccccc5C4)ncn3)CC2)NC(=O)[C@@H]2C[C@@H](O)CN2C(=O)[C@@H](NC(=O)C2(F)CC2)C(C)(C)C)cc1 cat="true (1)"
testsmiles=Cc1ncsc1-c1ccc([C@H](CC(=O)NCCCCCCC(=O)N2CCC(Nc3cc(C(=O)NC[C@H](O)CN4CCc5ccccc5C4)ncn3)CC2)NC(=O)[C@@H]2C[C@@H](O)CN2C(=O)[C@@H](NC(=O)C2(F)CC2)C(C)(C)C)cc1 cat="true (1)"
testsmiles=Cc1ncsc1-c1ccc(CNC(=O)[C@@H]2C[C@@H](O)CN2C(=O)[C@@H](NC(=O)C2(F)CC2)C(C)(C)C)c(OCC(=O)NCCOCCC(=O)N2CCC(Nc3cc(C(=O)NC[C@H](O)CN4CCc5ccccc5C4)ncn3)CC2)c1 cat="true (1)"
testsmiles=Cc1ncsc1-c1ccc([C@H](CC(=O)NCCOCCOCCOCCOCCC(=O)N2CCC(Nc3cc(C(=O)NC[C@H](O)CN4CCc5ccccc5C4)ncn3)CC2)NC(=O)[C@@H]2C[C@@H](O)CN2C(=O)[C@@H](NC(=O)C2(F)CC2)C(C)(C)C)cc1 cat="true (1)"
testsmiles=Cc1ncsc1-c1ccc([C@H](CC(=O)NCCOCCC(=O)N2CCC(Nc3cc(C(=O)NC[C@H](O)CN4CCc5ccccc5C4)ncn3)CC2)NC(=O)[C@@H]2C[C@@H](O)CN2C(=O)[C@@H](NC(=O)C2(F)CC2)C(C)(C)C)cc1 cat="false (0)"
testsmiles=Cc1ncsc1-c1ccc(CNC(=O)[C@@H]2C[C@@H](O)CN2C(=O)[C@@H](NC(=O)C2(F)CC2)C(C)(C)C)c(OCC(=O)NCC(=O)N2CCC(Nc3cc(C(=O)NC[C@H](O)CN4CCc5ccccc5C4)ncn3)CC2)c1 cat="true (1)"
testsmiles=Cc1ncsc1-c1ccc(CNC(=O)[C@@H]2C[C@@H](O)CN2C(=O)[C@@H](NC(=O)C2(F)CC2)C(C)(C)C)c(OCC(=O)NCCOCCOCCOCCC(=O)N2CCC(Nc3cc(C(=O)NC[C@H](O)CN4CCc5ccccc5C4)ncn3)CC2)c1 cat="true (1)"
testsmiles=Cc1ncsc1-c1ccc([C@H](CC(=O)NCCCC(=O)N2CCC(Nc3cc(C(=O)NC[C@H](O)CN4CCc5ccccc5C4)ncn3)CC2)NC(=O)[C@@H]2C[C@@H](O)CN2C(=O)[C@@H](NC(=O)C2(F)CC2)C(C)(C)C)cc1 cat="true (1)"
testsmiles=Cc1ncsc1-c1ccc([C@H](CC(=O)NCC(=O)N2CCC(Nc3cc(C(=O)NC[C@H](O)CN4CCc5ccccc5C4)ncn3)CC2)NC(=O)[C@@H]2C[C@@H](O)CN2C(=O)[C@@H](NC(=O)C2(F)CC2)C(C)(C)C)cc1 cat="true (1)"

###

- assayedSystem: von Hippel-Lindau disease tumor suppressor/Protein arginine N-methyltransferase 5 (Homo sapiens, UniProt O14744+P40337)
- assayName: PROTAC activity at PRMT5/VHL in human MDA-MB-468 cells assessed as relative protein level at 5 uM measured after 24 hrs by Western blot analysis
- Type: cell-based
Activity calls are given as the source filed them. The calls are words filed in the database; no cut-off is given here.
Outcomes: label 1 = active, label 0 = inactive

testsmiles=Cc1ncsc1-c1ccc(CNC(=O)[C@@H]2C[C@@H](O)CN2C(=O)[C@@H](NC(=O)C2(F)CC2)C(C)(C)C)c(OCC(=O)NCCOCCOCCOCCC(=O)N2CCC(Nc3cc(C(=O)NC[C@H](O)CN4CCc5ccccc5C4)ncn3)CC2)c1 cat="label 1"
testsmiles=Cc1ncsc1-c1ccc(CNC(=O)[C@@H]2C[C@@H](O)CN2C(=O)[C@@H](NC(=O)C2(F)CC2)C(C)(C)C)c(OCC(=O)NCCCCCC(=O)N2CCC(Nc3cc(C(=O)NC[C@H](O)CN4CCc5ccccc5C4)ncn3)CC2)c1 cat="label 1"
testsmiles=Cc1ncsc1-c1ccc([C@H](C)NC(=O)[C@@H]2C[C@@H](O)CN2C(=O)[C@@H](NC(=O)COCCOCCOCCOCCOCC(=O)N2CC(Nc3cc(C(=O)NC[C@H](O)CN4CCc5ccccc5C4)ccn3)C2)C(C)(C)C)cc1 cat="label 0"
testsmiles=Cc1ncsc1-c1ccc(CNC(=O)[C@@H]2C[C@@H](O)CN2C(=O)[C@@H](NC(=O)C2(F)CC2)C(C)(C)C)c(OCC(=O)N2CCC(Nc3cc(C(=O)NC[C@H](O)CN4CCc5ccccc5C4)ncn3)CC2)c1 cat="label 1"
